System: A498 renal
procedure.text: NCI tumour cell line growth inhibition, 48 h
I'd be grateful if you could share measured GI50 for these entries.

Entry C1CN(SSN2CCOCC2)CCO1 — recorded GI50 = > 100 µM

Entry O=C(NN1C(=O)CSC12CCCC2)c1[nH]c2ccc(Br)cc2c1-c1ccccc1 — recorded GI50 = > 100 µM

Entry Cn1cc(C2=C(c3cccc(OCC(O)CO)c3)C(=O)NC2=O)c2ccccc21 (stereo not drawn) — recorded GI50 = > 25 µM

---

Test system: OVCAR-5 ovarian
procedure.text: NCI tumour cell line growth inhibition, 48 h
measure: TGI

Entry CCCCCC(C)SC1(C(=O)OC)CC(OC(C)=O)C(NC(C)=O)C([C@H](OC(C)=O)[C@@H](COC(C)=O)OC(C)=O)O1 (stereo partly specified) — recorded TGI = > 100 µM

Entry CN(C)c1nc2oc(-c3ccccc3)c(-c3ccccc3)c2c2nnnn12 — recorded TGI = > 100 µM

Entry CCN(C(=S)N[C@H](C(=O)N[C@@H](C)C(=O)OC)C(C)C)c1ccccc1 — recorded TGI = > 100 µM

Entry O=S1(=O)OCCOS(=O)(=O)C1Cc1ccccc1 — recorded TGI = > 100 µM

Entry O=C1CC(S(=O)(=O)O)C=C1Nc1cccc(Cl)c1 (stereo unspecified) — recorded TGI = > 100 µM

Entry CCCCN(CCCC)c1ccc(C(=N)c2ccc(N(CCCC)CCCC)cc2)cc1 — recorded TGI = 2.31 µM
